Measured values drawn from PubChem BioAssay (NCI) for this set.

I'd be grateful if you could share measured TGI for these entries.
Tested on: HL-60(TB) leukemia
assayName: NCI tumour cell line growth inhibition, 48 h

molecule	TGI
O=C1Cc2ccccc2N1/N=C\c1ccc([N+](=O)[O-])cc1	> 100 µM
Cc1cc(C23OC4COC(C)(C)OC4C2OC(C)(C)O3)nc2ccccc12 (stereo unspecified)	> 100 µM
COc1cccc2c(Nc3ccc(C(=O)O)cc3)cc(-c3ccccc3)nc12	> 100 µM
COC12COC(=O)C1C(c1ccc3c(c1)OCO3)c1cc3c(cc1O2)OCO3 (stereo unspecified)	> 52.3 µM
CC(C)C(O)(C(=O)OCN1C(=O)C2C3C=CC(C2C1=O)C1C2C(=O)N(COC(=O)C(O)(C(C)C)C(C)O)C(=O)C2C31)C(C)O (stereo unspecified)	> 100 µM

List TGI for every entry below, keeping the order given.
1. O=C(CC(=O)Nc1ccc(C(=O)O)cc1)Nc1ccc(C(=O)O)cc1
2. O=C(O)c1ccc(C=C2Sc3ccccc3S2)cc1
3. CC(NS(=O)(=O)c1ccc(Cl)cc1)C(=O)O (stereo unspecified)
4. CCOC(=O)c1sc2nc(SC)nc(Nc3ccc4c(c3)OCO4)c2c1N

1. > 100 µM
2. > 100 µM
3. > 100 µM
4. > 100 µM

Items follow; give TGI for each.
1. COc1ccc2c3c([nH]c2c1CC=C(C)C)C(=O)C=C(C)C3=O
2. CC(=O)c1ccc(NC(=O)/C(CC(=O)/C=C/c2ccccc2)=N/NC(N)=S)cc1

> 25 µM
> 100 µM

* * *

Test system: SF-295 CNS
assayName: NCI tumour cell line growth inhibition, 48 h
quantityName: TGI

Here is how some molecules turned out for TGI.
molecule	systemName	assayResult
CC(=O)Oc1cc2oc(=O)cc(C)c2cc1OC(C)=O	SF-295 CNS	> 100 µM
COc1ccc([C@H]2[C@H](C)C3=Nc4ccccc4CN32)cc1	SF-295 CNS	> 100 µM
Cc1ccc(/C=C2\CN(C)CC3=C2NC(=S)NC3c2ccc(C)cc2)cc1 (stereo not given)	SF-295 CNS	> 100 µM
O=C(CCc1ccc(O)cc1)NCCc1cccc(O)c1	SF-295 CNS	> 50 µM

Tell me the measured TGI of NC(C(=O)O)c1cc(=O)[nH]o1 (stereo not given) , please.
> 100 µM

* * *

Test system: T-47D breast
assayName: NCI tumour cell line growth inhibition, 48 h
Please go through the items and note down their TGI.

Solved entries:
structureAsSmiles	systemName	TGI
Cc1ccc2c(c1)c(C1=C(c3cn(C)c4ccccc34)C(=O)NC1=O)cn2C	T-47D breast	20 µM
O=C(NNc1cn[nH]c(=O)n1)c1cccc2nc3ccccc3nc12	T-47D breast	> 100 µM
CC(=O)c1ccc(NC(=O)/C(CC(=O)/C=C/c2ccccc2)=N/NC(N)=S)cc1	T-47D breast	> 100 µM

For every record below, what is its TGI?
1. COc1ccc(-c2c3ccccc3c(-c3ccc(OCCBr)cc3)c3ccccc23)cc1
2. Clc1ccc(Cl)c(NNc2cc(Cl)ccc2Cl)c1
3. O=C(c1ccccc1)c1ccc2nc(-c3c(Cl)c(Cl)c(Cl)c(Cl)c3C(=O)N/N=C\C=C\c3ccccc3)[nH]c2c1

> 100 µM
> 10 µM
> 100 µM

* * *

System: SF-295 CNS
assayName: NCI tumour cell line growth inhibition, 48 h
quantityName: TGI

See these solved cases before continuing.
compound	assayResult
Cc1ccc2c(c1)c(C1=C(c3cn(C)c4ccccc34)C(=O)NC1=O)cn2C	> 15.7 µM
COc1ccc(C2C(C#N)=C(N)Oc3c2sc2c(C)cccc32)cc1 (centres undefined)	2.4 µM
CC(=O)c1c(C)cn(S(=O)(=O)NC(=O)Nc2nncs2)c1C	> 100 µM

Can you give me TGI for all of these, one by one?
1. CC(=O)c1c(SCCN2CCCCCC2)n(-c2ccccc2)c(=S)n(-c2ccccc2)c1=O
2. Brc1ccc2c(C3CN[C@@H](c4c[nH]c5cc(Br)ccc45)CN3)c[nH]c2c1 (some centres undefined)

1: > 100 µM; 2: 12.4 µM

For each entry beneath this line, provide reported TGI.
1. CCOC(=O)Nn1cnnc1C
2. ClCc1nn(-c2ccccc2)c(CCl)c1CCl
3. O=C(CSCC(=O)N/N=C\c1cc(Cl)cc(Cl)c1O)N/N=C\c1cc(Cl)cc(Cl)c1O
4. CC(=O)NCCC1CN(C(=O)/C=C\I)c2ccccc21 (centres undefined)
5. C=C1C(=O)[C@@]23CC[C@@H]4[C@@]5(C)CCC[C@@]4(OC5=O)C2(C)CC[C@]1(OC)C3 (some centres undefined)

1. > 100 µM
2. 26.5 µM
3. 21 µM
4. 31.5 µM
5. 13.4 µM
